Assay comment: recombinant barcode read abundance after kanamycin selection (control-corrected) (log10(CPM+1)); higher = more efficient recombination; sequences stand for … in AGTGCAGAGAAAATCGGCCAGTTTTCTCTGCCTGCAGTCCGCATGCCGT…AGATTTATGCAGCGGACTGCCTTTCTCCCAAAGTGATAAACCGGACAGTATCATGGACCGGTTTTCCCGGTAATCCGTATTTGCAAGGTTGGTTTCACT; site = the 11-nt target
Readings of recombinant barcode read abundance (log10) for the listed sequences

In [3]: df
Out[3]:
                             input_sequence  measured
0  TTCAAACCTTGGGTTCTAACCTGTTGCCT (site TTCAAATCTAG)     0.115
1  TACGACGCTTGGGTTCTAACCTGTTGCCT (site TAGGACGCTAG)    0.0186
2  TTCAAACCTTGGGTTCTAACCTGTTGCCT (site TTCAAAACTAG)    0.0532
3  GAGGGTCCTTGGGTTCTAACCTGTTGCTT (site GAGGGTCCTAT)      1.83
4  GGGTTTGCTTGGGTTCTAACCTGTTGCCT (site GAGTTTGCTAG)         0

I am curious: what recombinant barcode read abundance (log10) value has been reported for ACAAAGCCTTGGGTTCTAACCTGTTGCCT (site ACAAACCCTAG) ?
0.0556

I am curious: what recombinant barcode read abundance (log10) value has been reported for TACGATACTTGGGTTCTAACCTGTTGCGT (site TACGATACTAC) ?
1.19

###

Assay comment: recombinant UMI read abundance after kanamycin selection (control-corrected) (log10(CPM+1)); higher = more efficient recombination; extreme values may be limits of the assay; sequences stand for … in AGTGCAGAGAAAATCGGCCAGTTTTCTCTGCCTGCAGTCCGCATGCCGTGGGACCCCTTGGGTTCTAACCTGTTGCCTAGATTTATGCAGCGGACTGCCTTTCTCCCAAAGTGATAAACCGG…AGGTTGGTTTCACT; site = the 11-nt donor
Quantity measured: recombinant UMI read abundance (log10)
In your answer, state the number alone without any accompanying words.

I am curious: what recombinant UMI read abundance (log10) value has been reported for GTTTGGACATGGACCGGTTTTCCCGGTAATCCGTATTTGAC (site GATTGGACTGT) ?
0

I am curious: what recombinant UMI read abundance (log10) value has been reported for CCCGGTGCATGGACCGGTTTTCCCGGTAATCCGTATTTGCA (site CCCGGTTCTTG) ?
0

I am curious: what recombinant UMI read abundance (log10) value has been reported for AGCCTAACATGGACCGGTTTTCCCGGTAATCCGTATTTGGG (site AGCCTAACTCC) ?
0.0227

I am curious: what recombinant UMI read abundance (log10) value has been reported for GTAGACGCATGGACCGGTTTTCCCGGTAATCCGTATTTGCG (site GTAGTCGCTCG) ?
0.182

###

Assay comment: recombinant UMI read abundance after kanamycin selection (control-corrected) (log10(CPM+1)); higher = more efficient recombination; extreme values may be limits of the assay; sequences stand for … in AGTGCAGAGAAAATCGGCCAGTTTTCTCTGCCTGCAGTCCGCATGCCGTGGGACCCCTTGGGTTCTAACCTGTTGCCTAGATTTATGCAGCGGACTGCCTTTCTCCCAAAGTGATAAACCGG…AGGTTGGTTTCACT; site = the 11-nt donor
Readings of recombinant UMI read abundance (log10) for the listed sequences
In your answer, state the number alone without any accompanying words.

The following sequences have reported results that may help.
>>> print(df.to_string())
                             input_sequence  measured
0  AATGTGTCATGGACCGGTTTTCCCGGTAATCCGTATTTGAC (site AATGTGTCTGA)         0
1  ACTAATACATGGACCGGTTTTCCCGGTAATCCGTATTTGGC (site TCTAATACTGC)      1.03
2  TCATAGACATGGACCGGTTTTCCCGGTAATCCGTATTTGCG (site TCAAAGACTCG)     0.629
3  GTAGACGCATGGACCGGTTTTCCCGGTAATCCGTATTTGCG (site GTAGGCGCTCG)      1.39
4  AGGACTACATGGACCGGTTTTCCCGGTAATCCGTATTTGCA (site AGGACTACTTG)      2.22

I am curious: what recombinant UMI read abundance (log10) value has been reported for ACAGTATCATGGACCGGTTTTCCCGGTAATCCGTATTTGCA (site TCGGTATCTTG) ?
0.0345

I am curious: what recombinant UMI read abundance (log10) value has been reported for CAGACATCATGGACCGGTTTTCCCGGTAATCCGTATTTGCT (site CAGACATCTAG) ?
2.46

###

Assay comment: recombinant barcode read abundance after kanamycin selection (control-corrected) (log10(CPM+1)); higher = more efficient recombination; sequences stand for … in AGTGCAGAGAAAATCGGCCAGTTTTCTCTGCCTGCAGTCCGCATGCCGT…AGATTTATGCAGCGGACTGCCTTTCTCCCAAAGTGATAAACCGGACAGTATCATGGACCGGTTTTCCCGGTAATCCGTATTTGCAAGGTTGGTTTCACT; site = the 11-nt target
Quantity measured: recombinant barcode read abundance (log10)
In your answer, state the number alone without any accompanying words.

The following sequences have reported results that may help.
>>> print(df.to_string())
                             input_sequence  measured
0  AAGGCCTCTTGGGTTCTAACCTGTTGCCA (site AAGGCCTCTTG)      1.88
1  GAGAGTACTTGGGTTCTAACCTGTTGCAT (site GAGTGTACTAT)    0.0293
2  AGCTTGCCTTGGGTTCTAACCTGTTGCAG (site CATAGCGCTAG)     0.277

I am curious: what recombinant barcode read abundance (log10) value has been reported for ACGAGAGCTTGGGTTCTAACCTGTTGCCT (site ACGAGAGCTAG) ?
1.11

I am curious: what recombinant barcode read abundance (log10) value has been reported for TAGGATACTTGGGTTCTAACCTGTTGCGT (site TAGGAAACTAC) ?
0.314

I am curious: what recombinant barcode read abundance (log10) value has been reported for GCTTCCACTTGGGTTCTAACCTGTTGCCT (site ACTTCCACTAG) ?
0.074

I am curious: what recombinant barcode read abundance (log10) value has been reported for GCTGAGACTTGGGTTCTAACCTGTTGCCG (site GCTGAGACTCG) ?
2.53

###

Assay comment: recombinant barcode read abundance after kanamycin selection (control-corrected) (log10(CPM+1)); higher = more efficient recombination; sequences stand for … in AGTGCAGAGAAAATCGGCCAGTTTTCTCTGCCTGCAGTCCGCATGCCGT…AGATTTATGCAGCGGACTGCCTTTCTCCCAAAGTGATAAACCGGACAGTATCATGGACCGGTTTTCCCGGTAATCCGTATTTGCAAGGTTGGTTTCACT; site = the 11-nt target
Quantity measured: recombinant barcode read abundance (log10)
In your answer, state the number alone without any accompanying words.

The following sequences have reported results that may help.
>>> df
                             input_sequence  measured
0  GCTGGTCCTTGGGTTCTAACCTGTTGCCT (site GCCGGTCCTAG)     0.431
1  GTTTAATCTTGGGTTCTAACCTGTTGCAT (site GTTTAATCTAT)     0.343
2  CCGTAAGCTTGGGTTCTAACCTGTTGCCT (site CCGTAAGCTAG)     0.105

I am curious: what recombinant barcode read abundance (log10) value has been reported for AACGGAGCTTGGGTTCTAACCTGTTGCGG (site TGCGGAGCTCC) ?
0.699

I am curious: what recombinant barcode read abundance (log10) value has been reported for GTCCTATCTTGGGTTCTAACCTGTTGCCA (site ACGGATCCTAT) ?
0.0705

I am curious: what recombinant barcode read abundance (log10) value has been reported for CCTCAGGCTTGGGTTCTAACCTGTTGCCG (site CCTCAGGCTGG) ?
0.107

I am curious: what recombinant barcode read abundance (log10) value has been reported for CTAAGAACTTGGGTTCTAACCTGTTGCAT (site CTAAGAACTAG) ?
0.188

###

Assay comment: recombinant UMI read abundance after kanamycin selection (control-corrected) (log10(CPM+1)); higher = more efficient recombination; extreme values may be limits of the assay; sequences stand for … in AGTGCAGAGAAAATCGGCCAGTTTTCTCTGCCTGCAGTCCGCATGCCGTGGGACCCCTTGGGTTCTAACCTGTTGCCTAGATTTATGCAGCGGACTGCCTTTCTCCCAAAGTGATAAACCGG…AGGTTGGTTTCACT; site = the 11-nt donor
Assign class by recombinant UMI read abundance (log10): not lower than 0.2 means met; lower than 0.2 means not met.

In [3]: df
Out[3]:
                             input_sequence  label_class
0  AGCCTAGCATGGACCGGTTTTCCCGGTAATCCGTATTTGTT (site AGCCTAGCTCA)      not met
1  AAATGCTCATGGACCGGTTTTCCCGGTAATCCGTATTTGAA (site GAATGCTCTTT)          met
2  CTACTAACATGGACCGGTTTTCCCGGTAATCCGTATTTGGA (site GTACTAACTTC)      not met
3  CTTGAGACATGGACCGGTTTTCCCGGTAATCCGTATTTGGT (site ATTGAGACTAC)      not met
4  GCGAAAACATGGACCGGTTTTCCCGGTAATCCGTATTTGTT (site GCGAAAACTAT)      not met

State whether the measured recombinant UMI read abundance (log10) reaches 0.2, counting equality as reaching it, for CATAAAGCATGGACCGGTTTTCCCGGTAATCCGTATTTGAT (site CCTAAAGCTAT)
not met

State whether the measured recombinant UMI read abundance (log10) reaches 0.2, counting equality as reaching it, for GTGTCATCATGGACCGGTTTTCCCGGTAATCCGTATTTGCA (site GTGTCATCTTG)
met
